study.target: Androgen receptor (Homo sapiens, UniProt P10275)
Sequence (P10275 whole entry): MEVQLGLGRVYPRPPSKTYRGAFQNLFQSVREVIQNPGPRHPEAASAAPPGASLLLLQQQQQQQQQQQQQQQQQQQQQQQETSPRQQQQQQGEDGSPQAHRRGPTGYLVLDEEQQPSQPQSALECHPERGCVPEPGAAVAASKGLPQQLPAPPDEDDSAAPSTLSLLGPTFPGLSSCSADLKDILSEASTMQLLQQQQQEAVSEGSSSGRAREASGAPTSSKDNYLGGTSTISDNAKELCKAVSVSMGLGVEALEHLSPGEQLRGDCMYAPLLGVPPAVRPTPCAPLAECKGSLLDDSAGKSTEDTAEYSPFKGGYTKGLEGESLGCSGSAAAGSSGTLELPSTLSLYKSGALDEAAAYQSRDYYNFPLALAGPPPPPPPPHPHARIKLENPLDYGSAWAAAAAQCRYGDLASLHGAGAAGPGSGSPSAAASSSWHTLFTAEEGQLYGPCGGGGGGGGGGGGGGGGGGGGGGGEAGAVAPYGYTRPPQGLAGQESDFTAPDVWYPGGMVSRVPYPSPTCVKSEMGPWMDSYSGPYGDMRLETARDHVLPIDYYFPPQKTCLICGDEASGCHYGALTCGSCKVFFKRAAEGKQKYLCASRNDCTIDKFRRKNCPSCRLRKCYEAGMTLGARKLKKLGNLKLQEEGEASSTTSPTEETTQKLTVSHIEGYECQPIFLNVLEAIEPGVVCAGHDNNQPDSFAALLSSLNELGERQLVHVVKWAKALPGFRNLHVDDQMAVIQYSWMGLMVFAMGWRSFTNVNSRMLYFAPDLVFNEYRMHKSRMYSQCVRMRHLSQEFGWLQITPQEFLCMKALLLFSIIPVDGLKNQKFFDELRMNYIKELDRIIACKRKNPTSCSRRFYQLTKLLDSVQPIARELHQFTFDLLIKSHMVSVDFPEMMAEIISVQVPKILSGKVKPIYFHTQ
method: Antagonist activity at Androgen receptor in human LNCaP cells expressing ARR2PB-eGFP incubated for 3 days by fluorescence based assay
measured.attribute: pIC50
The scale used: pIC50 is minus the common logarithm of the concentration in molar units.

compound CC(=O)Cc1nsc(NC(=O)/C=C/c2ccc(C(F)(F)F)cc2)n1 , pIC50 observed: 4.80

---

method: Antiproliferative activity against mouse 3T3 cells incubated for 3 days by MTT assay
measurement.setup: NIH3T3 cells
measured.attribute: IC50 at 3 days

compound CNC(=O)c1ccc(N2C(=S)N(c3ccc(C#N)c(C(F)(F)F)c3)C(=O)C2(C)C)cc1F [ENZALUTAMIDE] , IC50 at 3 days observed: > 50 µM
